Data origin: the supplement of paper PMC10646978

Reported IRF reporter values follow for various molecules
- Test system: RAW-Dual (murine macrophage reporter line)
- Assay Details: IRF reporter (Lucia luciferase) activity fold change vs agonist alone; higher = enhanced IRF activity
- Study Conditions: modulator concentration 10 µM; agonist: MPLA […]
# respond with the number and nothing more

Molecule | IRF reporter
CN(C)CCCOc1nn(Cc2ccccc2)c2ccccc12.Cl | 1.22
CN1CCN(C2=C(Cl)C(=O)N(c3ccc(Cl)c(Cl)c3)C2=O)CC1 | 1.24

Query string: Report IRF reporter for `CC(=O)Nc1nnc(CCS(=O)(=O)c2ccc(Br)cc2)s1` please.
Result string: 1.16

Query string: I have this molecule here, `CCCCCCC=CCCCCCCCc1cccc(O)c1C(=O)O` , and I need its recorded IRF reporter.
Result string: 1.06

Query string: So what does the record say about IRF reporter for O=c1n(CCCN2CCN(c3cccc(Cl)c3)CC2)nc2ccccn12 [Prestw-292] ?
Result string: 1.19

Query string: IRF reporter for `CC(C)CNC(=O)C(=O)Nc1ccc(C(C)C)cc1` ?
Result string: 0.958

Query string: So what does the record say about IRF reporter for `COc1cccc(C=Nc2cccc([N+](=O)[O-])c2C)c1O` ?
Result string: 0.948
